The reported measurements were obtained from patent US7955815B2.

Test: Fluorescence as a function of pH in universal buffer; pKa value analysis
Type: physicochemical
Conditions: universal buffer solution, from fluorescence intensity as a function of pH
For each of the compounds below, state its pKa.
Respond with the number and no other words.

Name the recorded pKa of the item COc1cc(NC(=O)CN(C)c2ccc3cc(C(C)=O)ccc3c2)ccc1N in your answer. 4.18

Consider the compound CC(=O)c1ccc2cc(N(C)CC(=O)Nc3ccc(N)cc3)ccc2c1 . State its measured pKa. 4.42

---

Test: Water solubility from fluorescence intensity vs probe concentration
Assay type: physicochemical
Settings: kinetic from dmso stock, H2O, 0.2% DMSO, read-out: solubility (maximum concentration in the linear region)
Reported endpoint: solubility (µM)
Please respond with the number in µM and leave the unit unwritten.

Specify reported solubility for the molecule shown: CC(=O)c1ccc2cc(N(C)CC(=O)Nc3ccc(N)cc3)ccc2c1 [AH1] 5

State, in one line, measured solubility of CC(=O)c1ccc2cc(N(C)CC(=O)NCCN(C)C)ccc2c1 [AL1] 5

Determine its reported solubility: COc1cc(NC(=O)CN(C)c2ccc3cc(C(C)=O)ccc3c2)ccc1N [AH2] 9
